Assayed system: factor VIIa/tissue factor complex (Homo sapiens, UniProt P08709)
Construct: 9 nM of soluble factor VIIa
Sequence (P08709 213-466 limits assumed): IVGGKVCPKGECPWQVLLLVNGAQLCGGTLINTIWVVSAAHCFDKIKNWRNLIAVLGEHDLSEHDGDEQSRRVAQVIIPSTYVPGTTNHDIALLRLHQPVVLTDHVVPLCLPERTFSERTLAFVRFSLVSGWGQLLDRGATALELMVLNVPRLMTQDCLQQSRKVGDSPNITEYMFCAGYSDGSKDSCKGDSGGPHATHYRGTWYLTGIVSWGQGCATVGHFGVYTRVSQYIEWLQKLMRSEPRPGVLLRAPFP
Sequence (P08709 61-212 limits assumed): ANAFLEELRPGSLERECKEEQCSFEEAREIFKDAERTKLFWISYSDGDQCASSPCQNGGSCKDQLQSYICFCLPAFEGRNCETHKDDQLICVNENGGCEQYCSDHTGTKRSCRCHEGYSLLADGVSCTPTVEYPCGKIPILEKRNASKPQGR
Sequence (P13726 33-295 partner): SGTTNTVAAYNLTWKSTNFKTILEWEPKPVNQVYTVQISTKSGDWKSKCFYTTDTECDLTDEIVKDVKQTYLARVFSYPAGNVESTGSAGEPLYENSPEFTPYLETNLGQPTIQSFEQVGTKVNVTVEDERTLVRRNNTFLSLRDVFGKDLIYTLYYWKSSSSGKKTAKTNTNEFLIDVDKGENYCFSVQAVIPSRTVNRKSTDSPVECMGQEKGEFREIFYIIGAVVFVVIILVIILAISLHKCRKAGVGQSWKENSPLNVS
Measurement description: Inhibition of amidolytic activity of factor VIIa/tissue factor complex, chromogenic substrate Chromozym-tPA
Assay setup: 26 nM tissue factor, 9 nM soluble factor VIIa, room temperature, pH 7.5
Protocol: Measurements were carried out by an automated robotic assay on microtitre plates at room temperature. […] After an incubation time of 15 minutes the reaction was started by the addition of 50 μl of chromogenic substrate Chromozym-tPA (3.5 mM, MeSO2-D-Phe-Gly-Arg-paranitroamlide) and the hydrolysis of the substrate was followed spectrophotometrically on a kinetic microtitre plate reader over 10 minutes. […]
Structures can show the parent of a compound that is named as a salt.
Readout: Ki (nM)

CNC(=O)COc1cc(C(=N)N)ccc1CNC(=O)c1cc(Cl)cc(Cl)c1 [Example 18.2, hydrochloride] :: 62

1 = Cc1cc(C(=O)NCc2ccc(C(=N)N)cc2OCCNC(=O)c2ccccc2F)ccc1F [Example 42.2, hydrochloride]
2 = CCOC(=O)CNc1cc(C(=N)N)ccc1CNC(=O)c1cccc(C)c1 [Example 24.1, hydrochloride]
Hello, I am sorting some records. Could you say if 1 or 2 has the smaller Ki value? Answer with the label corresponding to your selection.
1
